system: LXRa:RXRa (NR concentration 270 nM, RXRa partner concentration 90 nM); experiment: PBM binding z-score (relative to random genomic background probes); higher = stronger binding; sequences stand for … in GC…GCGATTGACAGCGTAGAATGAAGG
Outcome label depends on PBM binding z-score relative to 1: at/above gives met, below gives not met.

GCTTACGGGTCAAAGATTATAGCATGAATAGAAT: met
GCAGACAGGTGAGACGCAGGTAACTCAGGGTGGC: not met
CCTTACGTGTCACTCCAGGTTATAGCATCGGAGT: met
ATCGAAAGGTAGAGGTGAGTATAGAGAAAGGGAA: not met
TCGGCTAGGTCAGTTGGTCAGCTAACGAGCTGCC: not met
CCAGACAGGTAAAAGGTAACTCAGTCTGGTACGC: not met
CAAACTAGGTCAGGAAAGGTCAAAGTCGAATGAC: met
TCTAGTTGGTCACGGAGGTCACACACGACGGGTA: met

Request: Can `TAGCCTAGGTCAGGTCGGGCCAGTATACGCTATA` be said to have PBM binding z-score at or above 1?
Result: met

Request: Can `CCGACTGGGCCAGAAAGGTTACCATACCATCCGG` be said to have PBM binding z-score at or above 1?
Result: not met

Request: Can `TCTTGTAGATCAAGCAGGTTAAGATAGCCTGAGT` be said to have PBM binding z-score at or above 1?
Result: not met

Request: Can `ACTTACGGGTCAACAAGGTTATAGCACGCGTATA` be said to have PBM binding z-score at or above 1?
Result: met

Request: Can `TCTGCTAGGTAAACGATGGTCAGCTAATCTGCTA` be said to have PBM binding z-score at or above 1?
Result: not met

Request: Can `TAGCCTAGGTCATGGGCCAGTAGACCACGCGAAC` be said to have PBM binding z-score at or above 1?
Result: met

Request: Can `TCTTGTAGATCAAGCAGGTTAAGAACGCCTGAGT` be said to have PBM binding z-score at or above 1?
Result: not met

Request: Can `CGTCCAAGGTCATAGGAGGTCAGTGAGGACAGAT` be said to have PBM binding z-score at or above 1?
Result: met

====

tested on: THRa:RXRa (NR concentration 90 nM, RXRa partner concentration 90 nM); experiment: PBM binding z-score (relative to random genomic background probes); higher = stronger binding; sequences stand for … in GC…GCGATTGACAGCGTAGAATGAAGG
Outcome label depends on PBM binding z-score relative to 2: at/above gives true (1), below gives false (0).

Record excerpt, results attached:
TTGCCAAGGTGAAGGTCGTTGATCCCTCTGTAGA: true (1)
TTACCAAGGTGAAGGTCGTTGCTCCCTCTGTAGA: true (1)
CCTACTGGGCAAAAGGTCATTGATTCCAATGCTC: true (1)
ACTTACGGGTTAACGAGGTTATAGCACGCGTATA: true (1)
TCTGCTAGGTCAGTTGCTCAGCTAACGAGCTGCC: false (0)
CCGACTGCGGCATAAGGTTACCATAAGCCAGCCC: true (1)

Request: Can `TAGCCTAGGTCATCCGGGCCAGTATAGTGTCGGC` be said to have PBM binding z-score at or above 2?
Result: true (1)

Request: Can `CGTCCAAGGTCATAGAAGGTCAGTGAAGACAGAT` be said to have PBM binding z-score at or above 2?
Result: true (1)

Request: Can `CGTCAAAGATCAACTAAGGTAACGTAAAGCACGC` be said to have PBM binding z-score at or above 2?
Result: true (1)

Request: Can `TCATATAGGTAATACAGGTGAAAGGCGGCATCTA` be said to have PBM binding z-score at or above 2?
Result: false (0)
